Source: paper PMC9505734

# experiment.notes: Pharmacokinetic experiment after oral administration in rats
# Type: in vivo, SD rats
# experimental.setup: male, SD, plasma, 10 mg/kg; analyte NVR 3-778 after oral NVR 3-778, rat

| compound | AUC(0-t) |
| --- | --- |
| O=C(Nc1cc(F)c(F)c(F)c1)c1ccc(F)c(S(=O)(=O)N2CCC(O)CC2)c1 [NVR 3-778] | 3890 ng·h/mL |

---

# experiment.notes: Pharmacokinetic experiment after oral administration in rats
# Format: in vivo, SD rats
# experimental.setup: male, SD, plasma, 10 mg/kg; analyte NVR 3-778 after oral NVR 3-778, rat

| mol.smiles | readout.unit | Tmax |
| --- | --- | --- |
| O=C(Nc1cc(F)c(F)c(F)c1)c1ccc(F)c(S(=O)(=O)N2CCC(O)CC2)c1 | min | 50 |

---

This listing pairs compounds with measured CC50.
# experiment.notes: Cytotoxicity assay (WST, Cell Counting Kit-8)
# Format: cell-based
# experimental.setup: human, Hep38.7-Tet cells, WST method (CCK-8); read-out: CC50: the concentration that kills 50% of Hep38.7-Tet cells

| mol.smiles | relation.symbol | CC50 (µM) |
| --- | --- | --- |
| O=C(O)CCCCC(=O)OC1CCN(S(=O)(=O)c2cc(C(=O)Nc3cc(F)c(F)c(F)c3)ccc2F)CC1 | > | 256 |
| O=C(O)CCC(=O)OC1CCN(S(=O)(=O)c2cc(C(=O)Nc3cc(F)c(F)c(F)c3)ccc2F)CC1 | = | 12.6 |
| O=C(Nc1cc(F)c(F)c(F)c1)c1ccc(F)c(S(=O)(=O)N2CCC(OP(=O)(O)O)CC2)c1 | = | 13.7 |
| O=C(O)CCCC(=O)OC1CCN(S(=O)(=O)c2cc(C(=O)Nc3cc(F)c(F)c(F)c3)ccc2F)CC1 | = | 13 |
| O=C(Nc1cc(F)c(F)c(F)c1)c1ccc(F)c(S(=O)(=O)N2CCC(O)CC2)c1 | = | 12.7 |

---

# experiment.notes: Pharmacokinetic experiment after oral administration in rats
# Format: in vivo, SD rats
# experimental.setup: male, SD; analyte N6 in plasma after oral N6, 10 mg/kg (18.8 nmol/kg), rat
result.type: Cmax (ng/mL)

| mol.smiles | result.type | readout.unit | reported |
| --- | --- | --- | --- |
| O=C(O)CCC(=O)OC1CCN(S(=O)(=O)c2cc(C(=O)Nc3cc(F)c(F)c(F)c3)ccc2F)CC1 | Cmax | ng/mL | 14.7 |

---

# experiment.notes: Water solubility test in phosphate buffers (HPLC)
# Type: physicochemical
# experimental.setup: aqueous buffer; phosphate buffer pH = 7.4
This listing pairs molecules with measured solubility at 1 h.
result.type: solubility at 1 h (µg/mL)

| molecule | readout.unit | reported |
| --- | --- | --- |
| O=C(Nc1cc(F)c(F)c(F)c1)c1ccc(F)c(S(=O)(=O)N2CCC(O)CC2)c1 [NVR 3-778] | µg/mL | 4.84 |
| O=C(O)CCC(=O)OC1CCN(S(=O)(=O)c2cc(C(=O)Nc3cc(F)c(F)c(F)c3)ccc2F)CC1 [N6] | µg/mL | 4420 |

---

# experiment.notes: Pharmacokinetic experiment after oral administration in rats
# Assay type: in vivo, SD rats
# experimental.setup: male, SD, plasma, 10 mg/kg; analyte NVR 3-778 after oral NVR 3-778, rat

| mol.smiles | AUC(0-inf) [ng·h/mL] |
| --- | --- |
| O=C(Nc1cc(F)c(F)c(F)c1)c1ccc(F)c(S(=O)(=O)N2CCC(O)CC2)c1 | 3940 |
